Biological target: Kappa-type opioid receptor (Homo sapiens)
Sequence (P41145 whole entry): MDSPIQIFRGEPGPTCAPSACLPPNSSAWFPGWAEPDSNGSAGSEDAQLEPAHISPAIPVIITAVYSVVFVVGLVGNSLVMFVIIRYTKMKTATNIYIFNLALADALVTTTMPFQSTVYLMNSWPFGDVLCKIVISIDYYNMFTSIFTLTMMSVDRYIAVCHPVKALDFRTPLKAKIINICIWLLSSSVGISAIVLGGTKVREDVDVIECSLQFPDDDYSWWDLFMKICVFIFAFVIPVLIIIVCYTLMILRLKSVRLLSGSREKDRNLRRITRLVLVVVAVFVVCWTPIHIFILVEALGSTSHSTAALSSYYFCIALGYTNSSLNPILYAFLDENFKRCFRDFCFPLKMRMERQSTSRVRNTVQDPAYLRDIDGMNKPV
Experiment: Agonist activity at human kappa-type opioid receptor expressed in CHO-K1 cells assessed as inhibition of forskolin-induced cAMP accumulation after 30 mins by luminescence-based assay
Could you please mark 1 for values of EC50 below 8 µM and 0 for values at or above it?

# chemical_structure, group_label
records = [
    ("C[C@@]12C[C@H](c3ccoc3)OC(=O)[C@@H]1CC[C@]1(C)[C@H]2[C@H]2C=C[C@]1(O)C(=O)O2", 0),
    ("C[C@@]12C[C@H](c3ccoc3)OC(=O)[C@@H]1CC[C@]1(C)[C@H]2[C@@H]2OC(=O)[C@@]1(O)[C@H](O)[C@@H]2O", 0),
    ("C[C@@]12C[C@H](c3ccoc3)OC(=O)[C@@H]1CC[C@]1(C)[C@H]2[C@H]2C=C[C@]1(OC(=O)/C=C/c1ccccc1)C(=O)O2", 1),
    ("CC(=O)O[C@@H]1[C@H]2OC(=O)[C@@](O)([C@@H]1OC(C)=O)[C@]1(C)CC[C@H]3C(=O)O[C@@H](c4ccoc4)C[C@@]3(C)[C@H]21", 0),
    ("C[C@@]12C[C@H](c3ccoc3Br)OC(=O)[C@@H]1CC[C@]1(C)[C@H]2[C@H]2C=C[C@]1(O)C(=O)O2", 0),
    ("C[C@@]12C[C@H](c3ccoc3)OC(=O)[C@@H]1CC[C@]1(C)[C@H]2[C@H]2CC[C@]1(O)C(=O)O2", 1),
    ("COCO[C@@]12C=C[C@@H](OC1=O)[C@H]1[C@]3(C)C[C@H](c4ccoc4)OC(=O)[C@@H]3CC[C@]12C", 0),
    ("C[C@@]12C[C@H](c3ccoc3Br)OC(=O)[C@@H]1CC[C@]1(C)[C@H]2[C@@H]2OC(=O)[C@@]1(O)[C@@H](Br)[C@@H]2Br", 0),
]
